- Measurement protocol: chemical genetic growth profiling, strain panel (AID 1159580);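 further: tested at 20 µM; growth read once vehicle control cultures reached saturation at 30 °C; 1 = growth at the plate median or of vehicle wells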
- Assay setup: S. cerevisiae deletion strains, growth OD, locus YJR066W, strain TOR1 (second series), stronger effect = lower value
The campaign covered roughly 5,500 compounds. About 2,000 (36%) were called active. Another 18% or so got no clear call; they are omitted. The list shows a part of the results.
Sorting guide: entries reporting normalized growth beneath 0.9 go in the 1 pile, the rest go in the 0 pile.

Below are worked cases with known answers.
| Item smiles | Label class |
| --- | --- |
| O=C(CSc1nnnn1-c1ccccc1)c1ccccc1 | 1 |
| Cc1cc(Cl)ccc1NNC(=O)c1snnc1C | 1 |
| COc1ccc(NNC(=O)c2sc3ccccc3c2Cl)cc1 | 1 |
| CC(=O)CSc1nnc(-c2ccc(C(C)(C)C)cc2)n1-c1ccc(Cl)cc1 | 0 |
| Cc1nn(Cc2cccc(C(=O)Nc3ccc(Cl)cc3)c2)c(C)c1Br | 0 |
| Cc1cc(Cl)ccc1NNC(=O)c1ccno1 | 1 |
| Cc1c(Cc2ccc(F)cc2)c(=O)oc2cc(O)ccc12 | 0 |
| S=C(Nc1ccc(Cl)cc1Cl)N(c1cccc(Cl)c1)c1nc2ccccc2s1 | 1 |

Input: Find out if reported normalized growth for "Cc1nnsc1C(=O)Nc1cc(C(F)(F)F)cc(C(F)(F)F)c1" is less than 0.9
Output: 0
